B1: library; a variant is named by its letters at N, in order (parent)
chain: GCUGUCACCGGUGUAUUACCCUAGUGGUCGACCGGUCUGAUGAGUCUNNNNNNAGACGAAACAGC

variants of: B1; assay: normalized RNA/DNA level without ligand (relative to sTRSVctl = 100) (log10 (% of sTRSVctl)); ligand: hypoxanthine (xanthine aptamer); higher = less ribozyme self-cleavage, higher mRNA level; settings: HEK293T, reporter: mCherry (pCS4076), ligand present: no
normalized RNA/DNA level without ligand (log10): recorded values
Output spec: single numeric token, no unit.

Solved entries:
The reported value for GCUGUCACCGGUGUAUUACCCUAGUGGUCGACCGGUCUGAUGAGUCUGGUUGCAGACGAAACAGC [GGUUGC] in terms of normalized RNA/DNA level without ligand (log10) is 1.52

The reported value for GCUGUCACCGGUGUAUUACCCUAGUGGUCGACCGGUCUGAUGAGUCUGGACUCAGACGAAACAGC [GGACUC] in terms of normalized RNA/DNA level without ligand (log10) is 1.92

The reported value for GCUGUCACCGGUGUAUUACCCUAGUGGUCGACCGGUCUGAUGAGUCUCCUAAUAGACGAAACAGC [CCUAAU] in terms of normalized RNA/DNA level without ligand (log10) is 1.86

The reported value for GCUGUCACCGGUGUAUUACCCUAGUGGUCGACCGGUCUGAUGAGUCUCGUCCCAGACGAAACAGC [CGUCCC] in terms of normalized RNA/DNA level without ligand (log10) is 1.98

The reported value for GCUGUCACCGGUGUAUUACCCUAGUGGUCGACCGGUCUGAUGAGUCUAUGCAUAGACGAAACAGC [AUGCAU] in terms of normalized RNA/DNA level without ligand (log10) is 1.76

The reported value for GCUGUCACCGGUGUAUUACCCUAGUGGUCGACCGGUCUGAUGAGUCUUCUUCAAGACGAAACAGC [UCUUCA] in terms of normalized RNA/DNA level without ligand (log10) is 1.87

The reported value for GCUGUCACCGGUGUAUUACCCUAGUGGUCGACCGGUCUGAUGAGUCUGGAAGAAGACGAAACAGC [GGAAGA] in terms of normalized RNA/DNA level without ligand (log10) is 1.45

The reported value for GCUGUCACCGGUGUAUUACCCUAGUGGUCGACCGGUCUGAUGAGUCUCACUGGAGACGAAACAGC [CACUGG] in terms of normalized RNA/DNA level without ligand (log10) is 1.43

***
The reported value for GCUGUCACCGGUGUAUUACCCUAGUGGUCGACCGGUCUGAUGAGUCUCUUCCCAGACGAAACAGC [CUUCCC] in terms of normalized RNA/DNA level without ligand (log10) is 1.94

The reported value for GCUGUCACCGGUGUAUUACCCUAGUGGUCGACCGGUCUGAUGAGUCUUCCUCGAGACGAAACAGC [UCCUCG] in terms of normalized RNA/DNA level without ligand (log10) is 1.68

The reported value for GCUGUCACCGGUGUAUUACCCUAGUGGUCGACCGGUCUGAUGAGUCUGGCCACAGACGAAACAGC [GGCCAC] in terms of normalized RNA/DNA level without ligand (log10) is 1.86

The reported value for GCUGUCACCGGUGUAUUACCCUAGUGGUCGACCGGUCUGAUGAGUCUCAUGGGAGACGAAACAGC [CAUGGG] in terms of normalized RNA/DNA level without ligand (log10) is 1.39

The reported value for GCUGUCACCGGUGUAUUACCCUAGUGGUCGACCGGUCUGAUGAGUCUAAAACCAGACGAAACAGC [AAAACC] in terms of normalized RNA/DNA level without ligand (log10) is 1.88

The reported value for GCUGUCACCGGUGUAUUACCCUAGUGGUCGACCGGUCUGAUGAGUCUUCGGUGAGACGAAACAGC [UCGGUG] in terms of normalized RNA/DNA level without ligand (log10) is 1.67

The reported value for GCUGUCACCGGUGUAUUACCCUAGUGGUCGACCGGUCUGAUGAGUCUCUAUCGAGACGAAACAGC [CUAUCG] in terms of normalized RNA/DNA level without ligand (log10) is 1.94

The reported value for GCUGUCACCGGUGUAUUACCCUAGUGGUCGACCGGUCUGAUGAGUCUUGAUUUAGACGAAACAGC [UGAUUU] in terms of normalized RNA/DNA level without ligand (log10) is 1.92

The reported value for GCUGUCACCGGUGUAUUACCCUAGUGGUCGACCGGUCUGAUGAGUCUACGAGUAGACGAAACAGC [ACGAGU] in terms of normalized RNA/DNA level without ligand (log10) is 1.11

The reported value for GCUGUCACCGGUGUAUUACCCUAGUGGUCGACCGGUCUGAUGAGUCUUGAAUCAGACGAAACAGC [UGAAUC] in terms of normalized RNA/DNA level without ligand (log10) is 1.96

The reported value for GCUGUCACCGGUGUAUUACCCUAGUGGUCGACCGGUCUGAUGAGUCUGAUAAUAGACGAAACAGC [GAUAAU] in terms of normalized RNA/DNA level without ligand (log10) is 1.78

The reported value for GCUGUCACCGGUGUAUUACCCUAGUGGUCGACCGGUCUGAUGAGUCUAAGGAUAGACGAAACAGC [AAGGAU] in terms of normalized RNA/DNA level without ligand (log10) is 1.65

The reported value for GCUGUCACCGGUGUAUUACCCUAGUGGUCGACCGGUCUGAUGAGUCUAGAACUAGACGAAACAGC [AGAACU] in terms of normalized RNA/DNA level without ligand (log10) is 1.83

The reported value for GCUGUCACCGGUGUAUUACCCUAGUGGUCGACCGGUCUGAUGAGUCUAUAUUAAGACGAAACAGC [AUAUUA] in terms of normalized RNA/DNA level without ligand (log10) is 1.82
